# ED50 annotations
Tested on: Streptococcus pyogenes C203
assay_procedure: In vivo protection of mice experimentally infected with S. pyogenes C203
experimental_setup: Streptococcus pyogenes, C203; mice; oral; doses given 1 and 4 hours post-infection; read-out: ED50, Oral
Report the value in mg/kg with no unit label.

Input: # get_value(readout='ED50', item= CCC1CC(C)C(=O)C=CC(C)=CC(COC2OC(C)C(O)C(O)C2OC)C(CC)OC(=O)CC(O)C(C)C1OC1OC(C)C(O)C(N(C)C)C1O (stereo not drawn) )
Output: 46

Input: # get_value(readout='ED50', item= CCC1OC(=O)CC(O)C(C)C(OC2OC(C)C(O)C(N(C)C)C2O)C(CCF)CC(C)C(=O)C=CC(C)=CC1COC1OC(C)C(O)C(OC)C1OC (stereo not drawn) )
Output: 11
